Assay: S. cerevisiae RM11-1a growth modifiers, primary screen, strain RM11-1a, OD600, basal, 24 h (AID 1177);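 further: cultures grown under basal conditions with no added stressor; test concentration not given here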
Conditions: OD600, 24 h, higher = more signal, called active from +8 up or from −8 down
readout-name: z-score
Answer with a number only.

What value of z-score has been reported for the following molecule? "COC(=O)[C@@]1(Cc2ccc(F)cc2)[C@H]2c3cc(C(=O)N(C)C)n(Cc4nc5ccccc5[nH]4)c3C[C@H]2CN1C(=O)c1ccccc1" 0.22

What value of z-score has been reported for the following molecule? "COC(=O)[C@@]1(Cc2ccccc2)[C@H]2c3cc(C(=O)N4CCCC4)n(Cc4nc5ccccc5[nH]4)c3C[C@H]2CN1C(=O)c1ccccc1" 0.759

What value of z-score has been reported for the following molecule? "Cc1ccc(S[C@]2(C(=O)NC(C)C)CC(=O)N(Cc3ccccc3Cl)[C@@H]2c2ccc(CO)cc2I)cc1" -1.89

What value of z-score has been reported for the following molecule? CC(C)C[C@H]1NC(=O)[C@@]23C(=O)N[C@@H](Cc4ccccc4)C2[C@H](C)[C@@]2(C)O[C@H]2C3/C=C/C/C=C\CNC(=O)[C@H](Cc2ccccc2)NC1=O (stereo partly specified) 1.66

What value of z-score has been reported for the following molecule? "C=CC[C@@]1(C(N)=O)N=C(c2ccc(OCCCO)cc2)O[C@@H]1c1ccccc1CN=[N+]=[N-]" -0.742

What value of z-score has been reported for the following molecule? "COc1cc2c(cc1OC)CN(C(=O)[C@H]1[C@@H]3C(=O)O[C@@H](c4ccccc4)[C@@H](c4ccccc4)N3[C@@H](c3ccc(O)cc3)[C@]13C(=O)Nc1ccc(C#CCNC(N)=O)cc13)CC2" 0.0092

Origin of measurements: PubChem BioAssay
